Provenance of the data: patent US7196110B2

- Target: PDGF-receptor beta enzyme comprising the tyrosine kinase domain (Homo sapiens, UniProt P09619)
- Construct: from amino acid 545 to 1106 of GenBank Access NO: AAA36427
- Sequence (P09619 545-1106): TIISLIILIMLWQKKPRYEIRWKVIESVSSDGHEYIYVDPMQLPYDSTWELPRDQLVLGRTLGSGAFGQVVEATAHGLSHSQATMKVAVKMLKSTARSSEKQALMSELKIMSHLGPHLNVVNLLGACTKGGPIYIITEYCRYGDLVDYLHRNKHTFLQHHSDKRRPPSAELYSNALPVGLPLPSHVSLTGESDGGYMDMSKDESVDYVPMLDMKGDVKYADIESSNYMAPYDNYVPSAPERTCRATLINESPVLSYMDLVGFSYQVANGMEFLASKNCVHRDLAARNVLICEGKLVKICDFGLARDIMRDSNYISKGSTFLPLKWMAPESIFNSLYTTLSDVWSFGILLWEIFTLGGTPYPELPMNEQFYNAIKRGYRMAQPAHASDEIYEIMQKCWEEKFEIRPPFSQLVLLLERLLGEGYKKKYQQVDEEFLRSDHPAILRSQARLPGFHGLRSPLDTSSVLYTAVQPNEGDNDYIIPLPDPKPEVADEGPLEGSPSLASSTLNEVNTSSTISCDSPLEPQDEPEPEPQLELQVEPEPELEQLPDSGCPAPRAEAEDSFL
- Measurement protocol: Inhibition of PDGF-receptor kinase activity (cell-free, PLC1 peptide, 33P Flashplate)
- Assay type: biochemical
- Condition notes: PDGF-R kinase activity; read-out: IC50
pIC50: −log10 of the molar value.
Values of pIC50 greater than or equal to 7 map to fulfilled; values below map to not fulfilled.

# bool: pIC50 of `CCOc1cc2c(cc1OCC)-c1n[nH]c(NCc3c(Cl)cccc3Cl)c1C2` >= 7
fulfilled

Test whether the molecule COc1cc2c(cc1OC)-c1c(c(Nc3cccc(F)c3)nn1CC(C)O)C2 (stereo not drawn) records pIC50 of 7 or higher.
not fulfilled

Decide: is the reported value of pIC50 for `COC(=O)c1cccc(Nc2[nH]nc3c2Cc2cc(N)ccc2-3)c1` equal to or greater than 7?
not fulfilled

Exam item: decide whether the reported pIC50 for `COc1cc2c(cc1OC)-c1n[nH]c(Nc3ccc(N(C)C)cc3)c1C2` is at least 7.
not fulfilled

// inclusive: pIC50 at least 7? input: `COC(=O)c1cccc(Nc2[nH]nc3c2Cc2cc(OC)c(OC)cc2-3)c1`
fulfilled

Is pIC50 for `COc1cc2c(cc1OC)-c1n[nH]c(NCCN3CCCCC3)c1C2` at or above 7?
not fulfilled

Has `COc1cccc(Nc2n[nH]c3c2Cc2sccc2-3)c1` a recorded pIC50 greater than or equal to 7?
fulfilled

Quick check, pIC50 >= 7? `COc1cc2c(cc1OC)C(C)(C)c1c-2n[nH]c1Nc1cccc(Cl)c1`
not fulfilled

Answer whether pIC50 of `COCCCOc1ccc2c(c1)Cc1c-2n[nH]c1Nc1cccc(C(=O)OC)c1` is greater than or equal to 7.
not fulfilled

Textbook exercise: given the entry `COc1cc2c(cc1OC)-c1c(c(Nc3cccc(F)c3)nn1COC(C)=O)C2` , state whether its pIC50 is greater than or equal to 7.
fulfilled

Dear colleague, could you confirm whether `COc1cc2c(cc1OC)-c1n[nH]c(Nc3ccccc3C(F)(F)F)c1C2` has pIC50 at or above 7?
not fulfilled

// inclusive: pIC50 at least 7? input: `COc1ccc(OC)c2c1Cc1c-2n[nH]c1Nc1ccccc1`
not fulfilled

Quick check, pIC50 >= 7? `COc1cc2c(cc1OC)-c1nn(C(=O)Oc3ccc(F)cc3)c(Nc3cccc(F)c3)c1C2`
fulfilled

Dear colleague, could you confirm whether COc1cc2c(cc1OCC(O)CO)Cc1c-2n[nH]c1Nc1cccnc1 (stereo not drawn) has pIC50 at or above 7?
fulfilled

Evaluate `COc1cc2c(cc1OC)-c1n[nH]c(NCc3ccc(F)cc3)c1C2` : pIC50 at minimum 7?
not fulfilled

Please tell me: is the molecule `CCOc1cccc(Nc2[nH]nc3c2Cc2cc(OC)c(OC)cc2-3)c1` at or over 7 in terms of pIC50?
fulfilled

Test whether the molecule `COc1cccc(Nc2[nH]nc3c2Cc2cc(F)ccc2-3)c1` records pIC50 of 7 or higher.
not fulfilled

Could you tell me if the measured pIC50 of `COc1cc2c(cc1OC)-c1n[nH]c(NCc3ccc(C)c(Cl)c3)c1C2` reaches 7 or more?
not fulfilled

Quick check: does `COc1cc2c(cc1OC)-c1n[nH]c(Nc3cccnc3)c1C2` have pIC50 greater than or equal to 7?
fulfilled

Kindly determine if pIC50 recorded for `COc1cc2c(cc1OC)-c1n[nH]c(Nc3ccc(C#N)cc3)c1C2` is above or exactly 7.
not fulfilled

Is pIC50 for `COc1ccc(Nc2[nH]nc3c2Cc2ccc(OC)cc2-3)c(OC)c1` at or above 7?
not fulfilled

Hello, I need to know if `COc1cc2c(cc1OC)-c1n[nH]c(Nc3ccc4cn[nH]c4c3)c1C2` has measured pIC50 not below 7. Thanks!
not fulfilled

Could you please find out whether `COc1cc2c(cc1OC)-c1n[nH]c(Nc3cccc(F)c3Br)c1C2` has pIC50 that meets 7 or exceeds it?
not fulfilled

Decide: is the reported value of pIC50 for `COc1ccncc1Nc1[nH]nc2c1Cc1cc(OC)c(OC)cc1-2` equal to or greater than 7?
not fulfilled

Item `COc1cc2c(cc1OC)-c1n[nH]c(Nc3cc(C(C)(C)C)cc(C(C)(C)C)c3)c1C2` with pIC50 of 7 or above?
not fulfilled

Is it the case that `Cc1ccc2c(c1)-c1n[nH]c(NCc3ccc(C)c(Cl)c3)c1C2` has pIC50 reaching or exceeding 7?
not fulfilled

Reported pIC50 at or above 7? `COc1cccc(Nc2[nH]nc3c2Cc2cc(N)ccc2-3)c1`
fulfilled

Decide: pIC50 of COc1cc2c(cc1OC)C(C)c1c-2n[nH]c1NCc1cccc(Cl)c1 (stereo not drawn) >= 7?
not fulfilled

Tell me whether pIC50 is at least 7 here: `COc1ccc(Nc2[nH]nc3c2Cc2c(OC)cccc2-3)cc1`
not fulfilled

###

I'd appreciate it if you could supply inhibition at 10 µM values for the items below.
- Target: PDGF-receptor beta enzyme comprising the tyrosine kinase domain (Homo sapiens, UniProt P09619)
- Construct: from amino acid 545 to 1106 of GenBank Access NO: AAA36427
- Measurement protocol: Inhibition of PDGF-receptor kinase activity (cell-free, PLC1 peptide, 33P Flashplate)
- Type: biochemical
- Condition notes: PDGF-R kinase activity; compound at 10 uM; read-out: Percent Inhibition @ 10 uM
Please state the figure in %; there is no need to write the unit.

Return inhibition at 10 µM for the following molecule: COc1cc2c(cc1OC)C(c1ccccc1)c1c-2n[nH]c1Nc1ccccc1 (centres unmarked)
40

Read the entry `Cc1ccc(Nc2[nH]nc3c2Cc2cc(Cl)ccc2-3)cc1` and write its reported inhibition at 10 µM.
72

Read the entry `Fc1ccc(Nc2[nH]nc3c2Cc2sccc2-3)cc1Cl` and write its reported inhibition at 10 µM.
74.5

Please report inhibition at 10 µM for the following molecule: `COc1cccc(Nc2[nH]nc3c2Cc2c(OCCCN(C)C)cccc2-3)c1`
102

Give a short answer stating reported inhibition at 10 µM for `COc1cc2c(cc1OC)-c1c(c(Nc3cccc(F)c3)nn1C(=O)NCCN1CCCC1)C2` .
100

###

- Target: PDGF-receptor beta enzyme comprising the tyrosine kinase domain (Homo sapiens, UniProt P09619)
- Construct: from amino acid 545 to 1106 of GenBank Access NO: AAA36427
- Measurement protocol: Inhibition of PDGF-receptor kinase activity (cell-free, PLC1 peptide, 33P Flashplate)
- Format: biochemical
- Condition notes: PDGF-R kinase activity; read-out: IC50
pIC50: −log10 of the molar value.
Outcome label depends on pIC50 relative to 7: at/above gives condition met, below gives condition not met.

Is the recorded value of pIC50 equal to or greater than 7 for this compound? `COc1cc2c(cc1OC)-c1n[nH]c(Nc3cc(Cl)cc(Cl)c3)c1C2`
condition not met

Identify whether the reported pIC50 of the following compound is 7 or greater: `COc1cc2c(cc1OC)-c1c(c(Nc3cccc(F)c3)nn1C(=O)C(C)C)C2`
condition not met

Item `COc1cc2c(cc1O)Cc1c-2n[nH]c1Nc1cccc(F)c1` with pIC50 of 7 or above?
condition met

Tell me whether pIC50 is at least 7 here: COc1cccc(Nc2[nH]nc3c2C(C)c2cc(OC)c(OC)cc2-3)c1 (centres unmarked)
condition met

Does the reported pIC50 for `COc1cc2c(cc1OC)-c1n[nH]c(Nc3cccc(SC(F)(F)F)c3)c1C2` fall at or above the 7 mark?
condition met

###

For each entry below, report its IC50 value.
- Target: PDGF-receptor beta enzyme comprising the tyrosine kinase domain (Homo sapiens)
- Construct: from amino acid 545 to 1106 of GenBank Access NO: AAA36427
- Measurement protocol: Inhibition of PDGF-receptor kinase activity (cell-free, PLC1 peptide, 33P Flashplate)
- Format: biochemical
- Condition notes: read-out: IC50 (μM) on PDGF-R kinase activity
Provide the reading as a plain figure in µM.

Indicate the recorded IC50 value for this compound: `CNC(=S)n1nc(Nc2cccc(F)c2)c2c1-c1cc(OC)c(OC)cc1C2`
1.14

Could you please provide reported IC50 for `COc1cc2c(cc1OC)-c1n[nH]c(Nc3cnccc3C(F)(F)F)c1C2` ? Thanks!
362

# return recorded IC50 for entry `CCOc1cc2c(cc1OCC)-c1n[nH]c(Nc3cccc(F)c3)c1C2`
0.0156

Tell us which IC50 value is on record for `COc1cc2c(cc1O)-c1n[nH]c(Nc3cccc(F)c3)c1C2`
0.026

Give me measured IC50, please, for this compound: CCC1c2cc(OC)c(OC)cc2-c2n[nH]c(Nc3cccnc3Cl)c21 (single isomer, unassigned)
0.547

Tell me measured IC50 for `COc1cc2c(cc1OC)-c1nn(C)c(Nc3cccc(F)c3)c1C2` please.
9.38

Assign IC50 to the following record: `COc1cc2c(cc1OC)-c1n[nH]c(N(c3cccc(F)c3)[C@@H]3O[C@H](C(=O)O)[C@@H](O)[C@H](O)[C@H]3O)c1C2`
0.662

Supply recorded IC50 for `COc1cc2c(cc1OC)-c1n[nH]c(Nc3ncccc3Br)c1C2` here.
1.25

Identify measured IC50 corresponding to `COc1cc2c(cc1OC)-c1c(c(Nc3cccc(F)c3)nn1CCO)C2`
7.33

Identify the reported IC50 for the following entry. CCOc1cccc(Nc2[nH]nc3c2C(CC)c2cc(OC)c(OC)cc2-3)c1 (single isomer, unassigned)
3.89

Quote IC50 reported for `CCCCCCCCCCCCCCCNC(=O)n1nc2c(c1Nc1cccc(F)c1)Cc1cc(OC)c(OC)cc1-2` please.
98.4
